Tested on: NCI-H460 lung
Quick reference: GI50 of the listed items.
readout_kind: GI50

| smiles | readout_kind | measured_result |
| --- | --- | --- |
| O=C(CN1CCN(c2ccc(Cl)cc2)CC1)N1CCN(c2nnc(-c3ccccc3)c(-c3ccccc3)n2)CC1 | GI50 | 4970 nM |
| CC(C)Oc1ccc(C(=O)N[C@H](CNC(=O)CN(C)C)Cc2ccc(-c3cn4cccc([C@H](C)O)c4n3)cc2)cc1Cl | GI50 | 36 nM |
| CC[C@@]1(O)C(=O)OCc2c1cc1n(c2=O)Cc2c-1nc1ccccc1c2/C=N/OC(C)(C)C | GI50 | < 10 nM |
| CC/C=C\C/C=C\C[C@H]1C/C=C2/C(=O)C=C[C@H]2C/C=C\CCC(=O)O1 | GI50 | 3100 nM |
| S=C(N/N=C(/c1ccccc1)c1ccccn1)Nc1cccc(Cl)c1 | GI50 | 612 nM |
| Cc1ccccc1/C=C1\CN(C(=O)OC(C)(C)C)C/C(=C\c2ccccc2C)C1=O | GI50 | 2120 nM |
| O=CC1(C2(C=O)c3ccccc3-c3ccccc32)c2ccccc2-c2ccccc21 | GI50 | 1560 nM |
| C[C@]12CC[C@H]3[C@@H](C[C@@H]4N=C(c5ccc(O)cc5)S[C@@]45C[C@H](O)CC[C@]35C)[C@@H]1CC[C@@H]2O | GI50 | 4940 nM |
| C=C1N(C)c2ccc(Cl)cc2C1(C)C | GI50 | 4940 nM |

###

System: MOLT-4 leukemia
assay_info: NCI tumour cell line growth inhibition, 48 h
Quick reference: GI50 of the listed items.

| compound | GI50 |
| --- | --- |
| O=C1c2cccnc2C(=O)c2c1c(C(=O)OCCN1CCOCC1)c1ccccn21 | 0.0938 µM |
| Oc1cc2ccccc2cc1-c1n[nH]c(=S)n1-c1ccc(Cl)cc1 | 22.7 µM |
| Cc1nn(-c2ccc(Br)cc2)c(C)c1CC(=O)c1cc(O)ccc1O | 3.26 µM |
| O=S(=O)(NCCCNc1cc(-c2cn(-c3ccccc3)nc2-c2cccc(O)c2)ccn1)c1ccc(Cl)cc1 | 1.26 µM |
| CSc1nc2c(c(=O)[nH]1)C(c1ccc(Cl)cc1)C1=C(N2)/C(=C/c2ccc(Cl)cc2)CNC1 (stereo unspecified) | 2.45 µM |
| COc1cc(NC(N)=NCCC(C)(C)c2ccc(C(F)(F)F)cc2)ncc1C#N | 1.84 µM |

###

System: EKVX NSCLC
assay_info: NCI tumour cell line growth inhibition, 48 h

| compound | TGI |
| --- | --- |
| O=C(N/C(=C\c1ccccc1)C1Nc2ccccc2C(=O)O1)c1ccccc1 (stereo not given) | > 100 µM |
| Cc1c2cccc-2c(OCCO)cc2c1[nH]c1ccccc12 | 5.18 µM |
| CC[C@]12C=CCN3CCC4(c5cc([C@@]6(C(=O)OC)CC7CN(CCc8c6[nH]c6ccccc86)C[C@@H]6CCC[C@H]76)c(OC)cc5N(C)C4[C@](O)(C(=O)OC)C1OC(C)=O)C32 (stereo not given in full) | > 3.86 µM |
| CC(O[Si](C)(C)C)C1C=CC(C)n2c(=O)n(-c3ccccc3)c(=O)n21 (stereo not given) | > 100 µM |
| OCSc1nn(CO)c(=S)s1 | 89.3 µM |
| CC(=O)NC(CCCCNC(=O)N(C)N=O)C(=O)NCc1ccccc1 (stereo not given) | > 100 µM |
| Cc1nn(C)c2c1C(=O)N(C)CC(=O)N2C | > 100 µM |
| CN(C)CCC1(C2=CCCC2)CC/C(=C\c2ccccc2)C1=O (stereo not given) | 25.7 µM |
| CCCCCCCCCCCCP(=O)(O)OCC(N)C(=O)O (stereo not given) | > 100 µM |
| CC(=O)OC1COC(Nn2c(=O)[nH]c3ccccc3c2=O)C(OC(C)=O)C1OC(C)=O (stereo not given) | > 100 µM |

Data provenance: PubChem BioAssay (NCI)
